experiment: wild-type E. coli BW25113 antibacterial activity – OD615, dose response (AID 638); settings: at 100 µM (top of the series) unless noted
The whole screen tested about 1,300 compounds, of which about 65 (5%) were called active. A selection follows. Results with a measured potency or affinity are listed apart.
measure: growth inhibition (%)
Numbers only, in %.

# count of solved cases: 3
Cc1ccc(NC(=O)c2nnn(-c3cc(C)cc(C)c3)c2N)cc1; -3.73
CC(C)OCCCNc1ncnc2c1[nH]c1ccccc12; 8.07
COc1ccccc1N1CCN(C(=O)c2cc(-c3ccc(C)cc3)on2)CC1; -0.92

# batch: return growth inhibition for each of the 2 compounds below
1. COC(=O)c1c(NC(=O)Cc2cccs2)sc2c1CCCC2
2. CC(C)OCCCNc1ncnc2c1[nH]c1ccc(F)cc12

1: 2.67; 2: 9.62

For this compound ( O=C(NC1CCCC1)c1sc(=S)n2c1[nH]c(=O)c1ccccc12 ), measured growth inhibition is -2.92

----------
experiment: wild-type E. coli BW25113 antibacterial activity – OD615, dose response (AID 638); conditions: at 100 µM (top of the series) unless noted
Among all 1,300 compounds or so, about 65 (5%) were called active.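 Rule for the calls: active = growth inhibition reaching a set limit at one or more tested doses; inactive = the rest.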 A selection follows. Results with a measured potency or affinity are listed apart.
Pick one: active, inactive

What is the recorded call for this compound in the test? N#CC1=C(SCC(=O)NC23CC4CC(CC(C4)C2)C3)NC(=O)C(C#N)C12CCCCC2 (stereo not drawn)
active

Hi, sorry to bother you, what did the test record for N#CC1=C(N)NC(SCc2ccccc2)=C(C#N)C12CCCCC2 ?
inactive

Dear all, I need the recorded test outcome for O=C(Nc1nnc(-c2ccc(Cl)cc2)o1)c1ccccc1Br , thank you.
inactive

Entry O=C(COn1nnc2ccc(C(F)(F)F)cc21)Nc1nnc(-c2ccccc2)o1 : call = ?
inactive

What did the test return for COc1ccc(OC)c(S(=O)(=O)n2cnc3cc(C)c(C)cc32)c1 ?
inactive

Called result for c1ccc(N2CCN(c3ncnc4c3oc3ccccc34)CC2)cc1
inactive

Which outcome did this test record for the compound CC(C)(C)C1CCC2(CC1)C(C#N)=C(SCC(=O)NC1CCCCC1)NC(=O)C2C#N (stereo not drawn) ?
inactive

# outcome recorded in this test, key = CCOC(=O)C1CN(c2cc3c(cc2F)c(=O)c(C(=O)O)cn3CC)OC1C(=O)OCC (stereo not drawn)
inactive

Which outcome was assigned to Cc1cc(-c2ccco2)c(C#N)c2nc3ccccc3n12 in this test?
inactive

Assay outcome for COc1ccc(OC)c(S(=O)(=O)N2CCN(c3c(C)cccc3C)CC2)c1 : what was it?
inactive

----------
experiment: wild-type E. coli BW25113 antibacterial activity – OD615, dose response (AID 638); settings: at 100 µM (top of the series) unless noted
The whole screen tested about 1,300 compounds, of which about 65 (5%) were called active. Not all results are given here. Potency and affinity values are given separately.
measure: growth inhibition (%)
Give bare numbers, in %.

Please review the following examples before continuing.
Cc1cc(N2CCC(C)CC2)nc(-n2nc(C)cc2C)n1; -4.79
O=c1c2ccccc2nc(SCc2cn3ccsc3n2)n1-c1ccccc1F; -8.01
O=C(Nc1ccc2c(c1)CCC2)C1COc2ccccc2O1 (stereo not drawn); 7.62
CC1CCCCN1S(=O)(=O)c1ccc(C(=O)Nc2nnc(-c3cccs3)o2)cc1 (stereo not drawn); 2.23
O=C(Nc1nnc(-c2cccs2)o1)c1cccc(Oc2ccccc2)c1; 12.7
CCCCCSc1nnc(-c2cc(Br)ccc2N)c(=O)[nH]1; -4.38
CCN(CC)c1ccc(C(=O)Nc2cccc(F)c2)cc1; 0.51

Shift focus to the following entry.
Record O=C(OC1CCc2ccccc2C1=O)c1ccccc1O (stereo not drawn) . Reported growth inhibition: 9.44

----------
test: wild-type E. coli BW25113 antibacterial activity – OD615, dose response (AID 638); conditions: at 100 µM (top of the series) unless noted
The whole screen tested about 1,300 compounds, of which about 65 (5%) were called active. Not all results are given here. Measured potencies and affinities stand elsewhere.
Give measured growth inhibition for each item. Keep answers brief.
Numbers only, in %.

Check out these entries, answers already filled in.
Cc1ccc(Cn2ccc(NC(=O)c3cc(CC(C)C)on3)n2)cc1; 0.62
O=C(CS(=O)(=O)c1ccccc1)Nc1nc(-c2ccccc2)cs1; 7.34
O=C(Nc1nnc(-c2ccccc2)o1)c1nc2ccccc2s1; -11.8

Give one value of growth inhibition per listed compound.
1. N#Cc1cn(CCOc2ccccc2F)c2ccccc12
2. N#Cc1nc(Cc2cccc3ccccc23)oc1NCCCn1ccnc1
3. Cc1ccc(-c2nnc3sc(CCc4ccccc4)nn23)cc1
4. N=c1c2c(-c3ccccc3)c(-c3ccccc3)n(Cc3ccco3)c2ncn1Cc1ccco1
5. Cc1ccccc1S(=O)(=O)Cc1ccc(C(=O)N2CCN(c3cccc(C)c3C)CC2)o1
6. N#Cc1nc(Cc2ccccc2)oc1NCc1ccccc1Cl
7. CCCCCOC(=O)c1ccc(NC(=O)c2ccco2)cc1
8. C=CCOC(=O)C(C#N)c1nc2ccccc2nc1N1CCCC1 (stereo not drawn)

1. -0.93
2. 2.47
3. 9.95
4. 8.39
5. 7.63
6. 14.5
7. -0.06
8. -1.85

For the 2 compounds below, give their growth inhibition values.
1. Cc1cccc(Nc2nc(-c3ccccn3)cs2)n1
2. COc1ccccc1N1CCN(Cc2nc(N)nc(Nc3ccc(C)c(Cl)c3)n2)CC1

1: 4.37; 2: 8.69
